Each entry below lists one item and its recorded pIC50 value.
Target: human recombinant 15-PGDH (Homo sapiens, UniProt P15428)
Sequence (P15428 whole entry): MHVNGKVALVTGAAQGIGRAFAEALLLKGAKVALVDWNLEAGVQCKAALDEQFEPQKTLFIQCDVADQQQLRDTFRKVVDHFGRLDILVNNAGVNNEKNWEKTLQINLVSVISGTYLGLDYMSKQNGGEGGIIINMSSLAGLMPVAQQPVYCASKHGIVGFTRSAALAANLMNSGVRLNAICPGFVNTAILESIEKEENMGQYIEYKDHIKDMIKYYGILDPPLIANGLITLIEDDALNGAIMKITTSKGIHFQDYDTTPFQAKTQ
Assay: Recombinant 15-PGDH enzymatic inhibition assay (PGDH-Lumi, NADH signal)
Details: recombinant 15-PGDH; 15 min pre-incubation, 60 min reaction with PGE2 and NAD+, NADH signal
pIC50: −log10 of the molar value.
endpoint: pIC50

compound="COCC[C@H](O)c1cc2ccc(-c3cnc4nn(C)cc4c3)cc2s1 (single isomer, unassigned) [Compound B59S]" targetorsystem="human recombinant 15-PGDH (Homo sapiens, UniProt P15428)" endpoint=pIC50 measurednumber=5.96
compound="Cn1nnc2cc(-c3ccc4cc([C@]5(O)C[C@@H](C(F)(F)F)C5)sc4n3)cnc21 [Compound C79C]" targetorsystem="human recombinant 15-PGDH (Homo sapiens, UniProt P15428)" endpoint=pIC50 measurednumber=9.23
compound="Cn1cc2cc(-c3ccc4cc([C@H](O)[C@@H]5CCOC5)sc4n3)cnc2n1 (single isomer, unassigned) [Compound B19RR]" targetorsystem="human recombinant 15-PGDH (Homo sapiens, UniProt P15428)" endpoint=pIC50 measurednumber=9.61
compound="[2H]C(O)(c1cc2ccc(-c3cnc4nn(C)cc4c3)nc2s1)C1CCOCC1 (stereo not shown) [Compound B66]" targetorsystem="human recombinant 15-PGDH (Homo sapiens, UniProt P15428)" endpoint=pIC50 measurednumber=9.02
compound="Cn1cc2cc(-c3ccc4nc([C@]5(O)C[C@@H](OC(F)(F)F)C5)sc4n3)cnc2n1 [Compound C105C]" targetorsystem="human recombinant 15-PGDH (Homo sapiens, UniProt P15428)" endpoint=pIC50 measurednumber=9.53
compound="CC(O)c1cc2c(-c3cnc4nn(C)cc4c3)cc(-c3cnc4nn(C)cc4c3)nc2s1 (stereo not shown) [Compound B10]" targetorsystem="human recombinant 15-PGDH (Homo sapiens, UniProt P15428)" endpoint=pIC50 measurednumber=6.86
compound="Cn1cc2cc(-c3ccc4cc(C(O)C5CC5)sc4n3)cnc2n1 (stereo not shown) [Compound B16]" targetorsystem="human recombinant 15-PGDH (Homo sapiens, UniProt P15428)" endpoint=pIC50 measurednumber=9.33
compound="CO[C@H]1C[C@](O)(c2cc3ccc(-c4cnc5nn(C)cc5c4)nc3s2)C1 [Compound C31C]" targetorsystem="human recombinant 15-PGDH (Homo sapiens, UniProt P15428)" endpoint=pIC50 measurednumber=9.45
compound="Cn1nnc2cc(-c3ncc4cc([C@]5(O)C[C@](C)(C#N)C5)sc4n3)cnc21 (single isomer, unassigned) [Compound C98T]" targetorsystem="human recombinant 15-PGDH (Homo sapiens, UniProt P15428)" endpoint=pIC50 measurednumber=8.76
compound="Cc1cn2cc(-c3ccc4cc([C@@H](O)C5CC(F)(F)C5)sc4n3)ccc2n1 (single isomer, unassigned) [Compound B48S]" targetorsystem="human recombinant 15-PGDH (Homo sapiens, UniProt P15428)" endpoint=pIC50 measurednumber=7.93
